B1: glmS ribozyme (parent)
chain: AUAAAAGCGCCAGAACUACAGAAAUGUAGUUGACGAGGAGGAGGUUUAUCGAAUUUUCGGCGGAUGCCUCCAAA

Variants of: B1
method-summary: self-cleavage kobs at 2500 uM GlcN6P; higher = faster cleavage; RNA array
cond: with glucosamine-6-phosphate
This sample holds only a part of the variants without activity.
measurement-kind: self-cleavage kobs at 2500 uM GlcN6P (s⁻¹)
Number in s⁻¹, nothing else.

[
  {
    "mutation-annotation": "U30G G32A",
    "measurement-kind": "self-cleavage kobs at 2500 uM GlcN6P",
    "reported": 0.00123
  }
]

Endpoint output: self-cleavage kobs at 2500 uM GlcN6P of U47G C58U . Value?
3.07e-05

Suppose we examine the variant A39C U47A G66C ; what self-cleavage kobs at 2500 uM GlcN6P value has been reported?
0.000411

Need self-cleavage kobs at 2500 uM GlcN6P, item G44U C70U
3.43e-05

Return reported self-cleavage kobs at 2500 uM GlcN6P; argument: G32A A53U
0.00067

State the recorded self-cleavage kobs at 2500 uM GlcN6P for this entry: C16G U30A A42C U69G
0.000262

Sample A12C U56A C58G — what was its self-cleavage kobs at 2500 uM GlcN6P?
0.00043

Which self-cleavage kobs at 2500 uM GlcN6P is listed for G29U A42G U45C ?
0.000107
